// provenance: patent US20180185504A1

Biological target: T1, monkey macaca fascicularis PRLR construct with an HA tag on HEK293/mfPRLR cells (macaca fascicularis, UniProt A0A2K5WXK1 25-619)
T1 construct: stably transfected into HEK293
T1 sequence: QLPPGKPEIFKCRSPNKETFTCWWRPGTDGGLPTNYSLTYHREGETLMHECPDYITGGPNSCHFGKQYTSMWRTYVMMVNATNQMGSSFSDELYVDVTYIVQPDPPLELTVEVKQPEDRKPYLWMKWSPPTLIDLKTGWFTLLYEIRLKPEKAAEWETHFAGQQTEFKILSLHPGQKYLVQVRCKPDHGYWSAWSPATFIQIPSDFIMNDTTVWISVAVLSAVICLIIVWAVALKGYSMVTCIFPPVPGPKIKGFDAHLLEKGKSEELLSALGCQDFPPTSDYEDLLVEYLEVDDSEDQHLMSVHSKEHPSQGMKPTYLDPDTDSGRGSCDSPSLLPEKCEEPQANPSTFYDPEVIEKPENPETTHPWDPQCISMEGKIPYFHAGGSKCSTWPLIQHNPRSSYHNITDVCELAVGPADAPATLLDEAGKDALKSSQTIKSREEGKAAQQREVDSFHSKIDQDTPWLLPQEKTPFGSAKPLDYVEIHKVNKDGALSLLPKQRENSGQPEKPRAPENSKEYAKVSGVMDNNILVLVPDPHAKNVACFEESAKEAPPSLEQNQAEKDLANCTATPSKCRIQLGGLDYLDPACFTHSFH
Assay: FACS on HEK293/mfPRLR cells
Field: FACS Cell Binding (Fold Above Background). Provide a value for each of the binders that follow.

If you can, please state the reported FACS Cell Binding (Fold Above Background) value of H1H6803P (antibody, human IgG1, V domains shown, human IgG1 Fc (H1H)) VH: EVQLVESGGGVVRPGGSLRLSCAASGFKFDDYGMTWVRHVPGKGLEWVSGINWNGGRTGYTDSVKGRFTISRDNAKNSLYLQMNSLRAEDTALYHCAGARRDAFDIWGQGTMVTVSS VL: DIQMTQSPSSLSASIGDRVTITCRASQNIIKYLNWYQQNAGKAPKLLIYTASSLQSGVPSRFSGSGSGTDFTLTISSLQPEDFATYYCQQSSSSPYTFGQGTKLEIK .
28 fold

If you can, please state the reported FACS Cell Binding (Fold Above Background) value of H1H6790P (antibody, human IgG1, V domains shown, human IgG1 Fc (H1H)) VH: EVQLVESGGGLVQPGGSLRLSCAASGFTFSSYAMTWVRQAPGKGLEWVSAITGSVGNTYYADSVKGRFTISRDNSKNTLYLQMNSLGAEDTAEYYCAKGAGMTTNWYLDLWGRGTLVTVSS VL: DIVMTQSPDSLAVSLGARATINCKSSQSVLYSSNNQNYLTWYQQKPGQPPKLLIKWASTRESGVPDRFSGSGSGTDFTLTISSLQAEDVAVYYCQQYASSPYTFGQGTKLEIK .
24 fold

If you can, please state the reported FACS Cell Binding (Fold Above Background) value of H1H6801P (antibody, human IgG1, V domains shown, human IgG1 Fc (H1H)) VH: QVQLQQSGPGLVKPSQTLSLTCVISGDSVSSNTAWNWVRQSPSRGLEWLGRTYYRSKWYNDYAVSVKSRITINPDTSKNQFSLLMNSVTPEDTAVYYCARVVRGLNYFDYWGQGTLVTVSS VL: DIVMTQSPDSLAVSLGERATINCKSSQSVLYNSNNKNYLAWYQQKPGQPPKLLIYWSSSRESGVPDRFSGSGSGTDFTLTISGLQAEDVAIYYCQQYSTIPYTFGQGTKLEIK .
88 fold

If you can, please state the reported FACS Cell Binding (Fold Above Background) value of H1H6967N (antibody, human IgG1, V domains shown, also called H2M6967N) VH: EVQLVESGGDLVHPGRSLRLSCAASGFPFDEYAMHWVRQVPGKGLEWVSGISWSNNNIGYADSVKGRFTISRDNAKNSLYLQMNSLRPEDTAFYYCAKSGIFDSWGQGTLVTVSS VL: EIVMTQSPATLSVSPGERATLSCRASQSVSRDLAWYQQKPGQAPRLLIHGASTRATGIPARFSGSGSGAEFTLIISSLQSEDFAVYYCQQYNNWPLTFGGGTKVEIK .
28 fold
